# targetDesc: hVACVase (Homo sapiens)
# Sequence (Q86WA6 38-291): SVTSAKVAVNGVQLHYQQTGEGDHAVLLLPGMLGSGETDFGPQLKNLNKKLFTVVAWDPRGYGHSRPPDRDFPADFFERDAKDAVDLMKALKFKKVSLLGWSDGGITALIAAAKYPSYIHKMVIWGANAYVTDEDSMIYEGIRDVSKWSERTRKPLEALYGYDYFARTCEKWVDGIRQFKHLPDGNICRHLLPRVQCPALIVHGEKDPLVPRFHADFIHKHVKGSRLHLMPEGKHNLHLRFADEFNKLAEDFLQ
# procedureSummary: hVACVase-mediated hydrolysis
# condition: 50 mM HEPES pH 7.4, 37°C; calculated from Vmax/[enzyme]0; 6×His-tagged hVACVase for Val-3-APG
quantity: kcat (s⁻¹)
Numbers only, in s⁻¹.

// worked examples, kcat included
molecule	resultValue
CC(C)[C@H](N)C(=O)OCc1ccccc1.Cl [Val-OBn, L-valine benzyl ester hydrochloride]	60
Cl.N[C@@H](Cc1ccccc1)C(=O)OCc1ccccc1 [Phe-OBn]	395
Br.CC(C)[C@H](N)C(=O)OCc1ccc([N+](=O)[O-])cc1 [valine p-nitrobenzyl ester]	130

With those in mind, consider the next molecule.
Give its kcat value. Item: CCOC(=O)[C@@H](N)Cc1ccccc1.Cl [Phe-OEt]
93
